Consider the following compounds and their measured MIC readings.
# Test system: Enterococcus faecium
# Method Notes: Antibacterial activity against Enterococcus faecium 7130724 by CLSI M07-A8 method
# Type: functional
Could you give me the number in µg/mL? Just the number is fine.

These recorded examples may help you get a feel for the data.
Query: Look up MIC for this compound: CNC(=O)C[C@@H]1NC(=O)c2csc(n2)-c2ccc(-c3nc(NC(=O)O[C@H]4C[C@H](C(=O)O)C4)cs3)nc2-c2csc(n2)-c2csc(n2)[C@H]([C@@H](O)c2ccccc2)NC(=O)CNC(=O)c2nc(sc2COC)[C@H](C(C)C)NC(=O)c2nc1sc2C
Result: 0.06

Query: Look up MIC for this compound: CNC(=O)C[C@@H]1NC(=O)c2csc(n2)-c2ccc(-c3nc(NC(=O)C(F)(F)F)cs3)nc2-c2csc(n2)-c2csc(n2)[C@H]([C@@H](O)c2ccccc2)NC(=O)CNC(=O)c2nc(sc2COC)[C@H](C(C)C)NC(=O)c2nc1sc2C
Result: 1

Query: Look up MIC for this compound: CNC(=O)C[C@@H]1NC(=O)c2csc(n2)-c2ccc(-c3nc(NC(C)=O)cs3)nc2-c2csc(n2)-c2csc(n2)[C@H]([C@@H](O)c2ccccc2)NC(=O)CNC(=O)c2nc(sc2COC)[C@H](C(C)C)NC(=O)c2nc1sc2C
Result: 1

# input for lookup
Query: Look up MIC for this compound: CNC(=O)C[C@@H]1NC(=O)c2csc(n2)-c2ccc(-c3nc(NC(=O)[C@H]4CC[C@@H]4C(=O)O)cs3)nc2-c2csc(n2)-c2csc(n2)[C@H]([C@@H](O)c2ccccc2)NC(=O)CNC(=O)c2nc(sc2COC)[C@H](C(C)C)NC(=O)c2nc1sc2C
Result: 0.5

----------
# System: Streptococcus pneumoniae
# Method Notes: Antibacterial activity against Streptococcus pneumoniae by CLSI M07-A8 method
# Format: functional, organism-based
Activity calls are given as the source filed them. How the calls were made is not given here.
Readout Type: Activity

Query: Look up Activity for this compound: CNC(=O)C[C@@H]1NC(=O)c2csc(n2)-c2ccc(-c3nc(NC(=O)CCCCN)cs3)nc2-c2csc(n2)-c2csc(n2)[C@H]([C@@H](O)c2ccccc2)NC(=O)CNC(=O)c2nc(sc2COC)[C@H](C(C)C)NC(=O)c2nc1sc2C
Result: Active

Query: Look up Activity for this compound: CNC(=O)C[C@@H]1NC(=O)c2csc(n2)-c2ccc(-c3nc(NC(=O)CCC(=O)O)cs3)nc2-c2csc(n2)-c2csc(n2)[C@H]([C@@H](O)c2ccccc2)NC(=O)CNC(=O)c2nc(sc2COC)[C@H](C(C)C)NC(=O)c2nc1sc2C
Result: Active

----------
# Method Notes: Oral bioavailability in Sprague-Dawley rat
# Type: ADME, organism-based
# Run Parameters: in vivo
Readout Type: bioavailability

Query: Look up bioavailability for this molecule: CNC(=O)C[C@@H]1NC(=O)c2csc(n2)-c2ccc(-c3nc(NC(=O)[C@H]4CC[C@H](C(=O)O)CC4)cs3)nc2-c2csc(n2)-c2csc(n2)[C@H]([C@@H](O)c2ccccc2)NC(=O)CNC(=O)c2nc(sc2COC)[C@H](C(C)C)NC(=O)c2nc1sc2C
Result: < 0.1%

----------
# Method Notes: Clearance in Sprague-Dawley rat at 75 mg/kg, iv bolus
# Format: ADME, organism-based
# Set-up: dose 75 mg/kg, route intravenous
# Run Parameters: in vivo
Readout Type: clearance
Show the value, then the unit it is measured in.

Query: Look up clearance for this compound: CNC(=O)C[C@@H]1NC(=O)c2csc(n2)-c2ccc(-c3nc(NC(=O)[C@H]4CC[C@H](C(=O)O)CC4)cs3)nc2-c2csc(n2)-c2csc(n2)[C@H]([C@@H](O)c2ccccc2)NC(=O)CNC(=O)c2nc(sc2COC)[C@H](C(C)C)NC(=O)c2nc1sc2C
Result: 0.4 mL/min/kg
